Study system: Cytochrome P450 2C9 (Homo sapiens)
Test summary: qHTS Assay for Inhibitors and Substrates of Cytochrome P450 2C9 (AID 883); note: nearly all actives have a fitted effect of over 60% in size
Reported conditions: recombinant CYP2C9, luciferin-H luminescence, 60 min; series mostly up to 57.1 µM
Results filed as inconclusive are left out. The source made the active and inactive calls. Calls come from the whole dose curve; as a rule, active = well fitted inhibition curve with a large enough effect; inconclusive = small, poorly fitted or top-dose-only effect; inactive = no such curve, though single readings can be large or run the other way.
Log the outcome using a class from active, inactive

Problem: Per the assay record, what outcome was assigned to CCCn1c(=O)c2[nH]c(C3CCCC3)nc2n(CCC)c1=O ?
Solution: inactive

Problem: For CCCCCCN(CCCCCC)C(=O)Cc1c(-c2ccc(F)cc2)[nH]c2ccccc12 , which call appears in the assay record?
Solution: inactive

Problem: Name the outcome recorded for NC(N)=NC(N)=Nc1cccc(Cl)c1 in the assay.
Solution: inactive

Now consider the entry below.
Problem: Which outcome was entered for the molecule O=C(O)c1cc2cc(F)ccc2[nH]1 in this test?
Solution: inactive
